# Measured Target: human cyclin E-CDK2 (Homo sapiens)
# Construct: made in house; host or cells: High Five insect cells (baculovirus)
# Protocol Description: CDK2 HTRF kinase assay (Ki measurement)
# Type: biochemical
# Assay Context: Rb substrate, ATP at 3x Km, Ki=IC50/(1+S/Km), read-out: Ki for cdk2 (unit inferred)
Observation Type: pKi
Answers are plain numbers, as −log10 of the molar value.

Data request, read-out pKi, for "COc1ccc(F)c(F)c1C(=O)c1ccc(NC2CCN(S(C)(=O)=O)CC2)nc1N"
7.27
